target: human muscarinic M3 receptor (Homo sapiens, UniProt P20309); construct: purchased Perkin Elmer; host or cells: CHO-K1 cells (membranes); assay: Human muscarinic M3 receptor binding assay ([3H]-NMS, CHO-K1 membranes); details: membranes from CHO-K1 cells expressing human M3; 1 nM [3H]-NMS; read-out: Binding IC50, M3
Sequence (P20309 whole entry): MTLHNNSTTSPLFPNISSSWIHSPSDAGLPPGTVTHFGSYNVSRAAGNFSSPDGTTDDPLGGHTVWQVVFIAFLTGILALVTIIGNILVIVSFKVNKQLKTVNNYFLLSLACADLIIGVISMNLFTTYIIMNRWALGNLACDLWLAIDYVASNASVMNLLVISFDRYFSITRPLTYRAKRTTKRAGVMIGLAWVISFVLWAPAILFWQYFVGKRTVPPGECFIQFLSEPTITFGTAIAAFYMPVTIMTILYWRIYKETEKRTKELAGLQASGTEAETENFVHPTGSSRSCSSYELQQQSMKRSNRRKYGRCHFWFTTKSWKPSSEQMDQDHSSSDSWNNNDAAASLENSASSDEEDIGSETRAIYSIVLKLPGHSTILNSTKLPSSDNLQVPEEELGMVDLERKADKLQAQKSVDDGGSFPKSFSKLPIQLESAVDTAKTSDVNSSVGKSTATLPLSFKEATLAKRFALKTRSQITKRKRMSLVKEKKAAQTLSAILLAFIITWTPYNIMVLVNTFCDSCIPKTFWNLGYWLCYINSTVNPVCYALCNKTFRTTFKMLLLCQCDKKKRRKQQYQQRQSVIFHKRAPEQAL
QUANTITY_KIND: pIC50
To interpret pIC50, take it as minus log10 of a concentration measured in moles per litre.

Record CN(CCCn1ccc2cc(CNC[C@H](O)c3ccc(O)c4[nH]c(=O)ccc34)ccc21)[C@H]1CC[C@H](OC(=O)C(O)(c2cccs2)c2cccs2)CC1 (relative stereo) / human muscarinic M3 receptor (Homo sapiens, UniProt P20309), pIC50 recorded as 9.22

Record CN(CCNC(=O)COc1ccc(CNC[C@H](O)c2ccc(O)c3[nH]c(=O)ccc23)cc1)[C@H]1CC[C@H](OC(=O)C(O)(c2cccs2)c2cccs2)CC1 (relative stereo) / human muscarinic M3 receptor (Homo sapiens, UniProt P20309), pIC50 recorded as 8.66

Record CN(CCCn1c(=O)oc2cc(CNC[C@H](O)c3ccc(O)c4[nH]c(=O)ccc34)ccc21)[C@H]1CC[C@H](OC(=O)C2(C)c3ccccc3Oc3ccccc32)CC1 / human muscarinic M3 receptor (Homo sapiens, UniProt P20309), pIC50 recorded as 9.00

Record CN(CCCn1nnc2cc(CNC[C@H](O)c3ccc(O)c4[nH]c(=O)ccc34)ccc21)[C@H]1CC[C@H](OC(=O)[C@](O)(c2cccs2)C2CCCC2)CC1 / human muscarinic M3 receptor (Homo sapiens, UniProt P20309), pIC50 recorded as 9.22

Record CN(CCCn1c(=O)oc2cc(CNC[C@H](O)c3ccc(O)c4[nH]c(=O)ccc34)ccc21)[C@H]1CC[C@H](OC(=O)C(O)(c2cccs2)c2cccs2)CC1 / human muscarinic M3 receptor (Homo sapiens, UniProt P20309), pIC50 recorded as 9.52

Measured values drawn from patent US20140303127A1 for this set.
